# System: 282377-053-R-J1-PDC complex spheroid viability;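 further: spheroids exposed to agents for seven days before readout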
# Method summary: Anticancer human tumor 282377-053-R-J1-PDC patient-derived colon adenocarcinoma cell line growth inhibition [RAS]
# Setup conditions: second compound 0.03 µM; first compound 0.0316 µM; active compounds read low
Lab note: compare viability, T/C with 90%, writing T if less and F if equal or more.

compound="CC(Nc1ccc2c(c1)OCCn1cc(N3C(=O)OCC3C(F)F)nc1-2)C(N)=O (stereo not given) + CCn1c(-c2cc(N3CCN(C)CC3)cnc2C(C)OC)c2c3cc(ccc31)-c1csc(n1)CC(NC(=O)C1CC1C)C(=O)N1CCCC(N1)C(=O)OCC(C)(C)C2" class_assignment=T
compound="CC1(O)CCCC1n1c(=O)c(C(F)F)cc2cnc(NC3CCN(S(C)(=O)=O)CC3)nc21 (stereo not given) + CCn1c(-c2cccnc2C(C)OC)c2c3cc(ccc31)N1CCOC(CC(NC(=O)C(C(C)C)N(C)C(=O)C3(F)CCN(C(=O)C#CC(C)(C)N(C)C)CC3)C(=O)N3CCCC(N3)C(=O)OCC(C)(C)C2)C1" class_assignment=F
compound="NC1c2ccccc2OC12CCN(c1cnc3c(N4CCCc5ncccc54)n[nH]c3n1)CC2 (stereo not given) + CCn1c(-c2cc(N3CCN(C)CC3)cnc2C(C)OC)c2c3cc(ccc31)-c1csc(n1)CC(NC(=O)C1CC1C)C(=O)N1CCCC(N1)C(=O)OCC(C)(C)C2" class_assignment=F
compound="CCC(CC)c1cc(NC2CCC(N)C2)n2nccc2n1 (stereo not given) + CCn1c(-c2cccnc2C(C)OC)c2c3cc(ccc31)N1CCOC(CC(NC(=O)C(C(C)C)N(C)C(=O)C3(F)CCN(C(=O)C#CC(C)(C)N(C)C)CC3)C(=O)N3CCCC(N3)C(=O)OCC(C)(C)C2)C1" class_assignment=T
compound="O=C(c1ccc(F)c(F)c1Nc1ccc(I)cc1F)N1CC(O)([C@@H]2CCCCN2)C1 + CCn1c(-c2cc(N3CCN(C)CC3)cnc2C(C)OC)c2c3cc(ccc31)-c1csc(n1)CC(NC(=O)C1CC1C)C(=O)N1CCCC(N1)C(=O)OCC(C)(C)C2" class_assignment=T
compound="Cc1nc(N2CCC3(CC2)COC(C)C3N)c(CO)nc1Sc1ccnc(N)c1Cl (stereo not given) + CCn1c(-c2cc(N3CCN(C)CC3)cnc2C(C)OC)c2c3cc(ccc31)-c1csc(n1)CC(NC(=O)C1CC1C)C(=O)N1CCCC(N1)C(=O)OCC(C)(C)C2" class_assignment=T
compound="CC(C)NCC(C(=O)N1CCN(c2ncnc3c2C(C)CC3O)CC1)c1ccc(Cl)cc1 (stereo not given) + CCn1c(-c2cc(N3CCN(C)CC3)cnc2C(C)OC)c2c3cc(ccc31)-c1csc(n1)CC(NC(=O)C1CC1C)C(=O)N1CCCC(N1)C(=O)OCC(C)(C)C2" class_assignment=F
compound="C[C@@H](NC(=O)c1ncnc(N)c1Cl)c1ncc(C(=O)Nc2cc(C(F)(F)F)c(Cl)cn2)s1 + CCn1c(-c2cc(N3CCN(C)CC3)cnc2C(C)OC)c2c3cc(ccc31)-c1csc(n1)CC(NC(=O)C1CC1C)C(=O)N1CCCC(N1)C(=O)OCC(C)(C)C2" class_assignment=F
compound="C[C@@H](NC(=O)c1ncnc(N)c1Cl)c1ncc(C(=O)Nc2cc(C(F)(F)F)c(Cl)cn2)s1 + CCn1c(-c2cccnc2C(C)OC)c2c3cc(ccc31)N1CCOC(CC(NC(=O)C(C(C)C)N(C)C(=O)C3(F)CCN(C(=O)C#CC(C)(C)N(C)C)CC3)C(=O)N3CCCC(N3)C(=O)OCC(C)(C)C2)C1" class_assignment=F
compound="Nc1ccn(C2OC(CO)C(O)C2(F)F)c(=O)n1 (stereo not given) + CCn1c(-c2cccnc2C(C)OC)c2c3cc(ccc31)N1CCOC(CC(NC(=O)C(C(C)C)N(C)C(=O)C3(F)CCN(C(=O)C#CC(C)(C)N(C)C)CC3)C(=O)N3CCCC(N3)C(=O)OCC(C)(C)C2)C1" class_assignment=F
compound="CC(=O)OC12COC1CC(O)C1(C)C(=O)C(O)C3=C(C)C(OC(=O)C(O)C(NC(=O)OC(C)(C)C)c4ccccc4)CC(O)(C(OC(=O)c4ccccc4)C21)C3(C)C (stereo not given) + CCn1c(-c2cccnc2C(C)OC)c2c3cc(ccc31)N1CCOC(CC(NC(=O)C(C(C)C)N(C)C(=O)C3(F)CCN(C(=O)C#CC(C)(C)N(C)C)CC3)C(=O)N3CCCC(N3)C(=O)OCC(C)(C)C2)C1" class_assignment=T
compound="CC(Nc1ccc2c(c1)OCCn1cc(N3C(=O)OCC3C(F)F)nc1-2)C(N)=O (stereo not given) + CCn1c(-c2cccnc2C(C)OC)c2c3cc(ccc31)N1CCOC(CC(NC(=O)C(C(C)C)N(C)C(=O)C3(F)CCN(C(=O)C#CC(C)(C)N(C)C)CC3)C(=O)N3CCCC(N3)C(=O)OCC(C)(C)C2)C1" class_assignment=T
compound="O=C(c1ccc(F)c(F)c1Nc1ccc(I)cc1F)N1CC(O)([C@@H]2CCCCN2)C1 + CCn1c(-c2cccnc2C(C)OC)c2c3cc(ccc31)N1CCOC(CC(NC(=O)C(C(C)C)N(C)C(=O)C3(F)CCN(C(=O)C#CC(C)(C)N(C)C)CC3)C(=O)N3CCCC(N3)C(=O)OCC(C)(C)C2)C1" class_assignment=T
compound="CC(=O)OC12COC1CC(O)C1(C)C(=O)C(O)C3=C(C)C(OC(=O)C(O)C(NC(=O)OC(C)(C)C)c4ccccc4)CC(O)(C(OC(=O)c4ccccc4)C21)C3(C)C (stereo not given) + CCn1c(-c2cc(N3CCN(C)CC3)cnc2C(C)OC)c2c3cc(ccc31)-c1csc(n1)CC(NC(=O)C1CC1C)C(=O)N1CCCC(N1)C(=O)OCC(C)(C)C2" class_assignment=T
